# SYSTEM TESTED: T1, recombinant human ErbB3 protein (R&D systems) (human, UniProt P21860 20-643)
# T1 construct: Bought recombinant protein; also called HER3
# EXPERIMENT DESCRIPTION: BLI (Octet QK384), human ErbB3 immobilized on AR2G sensor, IgG at 12.5-50 nM
Readings of koff for the listed binders
The reply should be a number in s⁻¹, with the unit left off.

Some entries whose results are on file:
BINDER | koff / s⁻¹
472M1 (antibody, V domains shown, IgG1 (Selexis 085 vector, CHO)) VH: EVQLLESGGGLVQPGGSLRLSCAASGFTFSWYDLSWVRQAPGKGLEWVSGISYDGGNTYYADSVKGRFTISRDNSKNTLYLQMNSLRAEDTAVYYCARDPSWCLQDLCYYADGMDVWGQGTLVTVSS VL: QSVLTQPPSASGTPGQRVTISCSGSSSNIGSNSVSWYQQLPGTAPKLLIYADSNRPSGVPDRFSGSKSGTSASLAISGLRSEDEADYYCGSWDYSLSGYVFGGGTKLTVLG | 1.74e-05
472P (antibody, V domains shown, IgG1 (Selexis 085 vector, CHO); also called anti-ErbB3 lead antibody 472P) VH: EVQLLESGGGLVQPGGSLRLSCAASGFTFSDYDMSWVRQAPGKGLEWVSGISYDGGNTYYADSVKGRFTISRDNSKNTLYLQMNSLRAEDTAVYYCARDPSWCLQDLCYYADGMDVWGQGTLVTVSS VL: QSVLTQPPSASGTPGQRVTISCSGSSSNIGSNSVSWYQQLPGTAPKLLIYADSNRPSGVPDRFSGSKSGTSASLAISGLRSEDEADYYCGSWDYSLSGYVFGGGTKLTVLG | 0.000508

Which measured koff value corresponds to 472S3 (antibody, V domains shown, IgG1 (Selexis 085 vector, CHO)) VH: EVQLLESGGGLVQPGGSLRLSCAASGFTFSWYDMSWVRQAPGKGLEWVSGISYDGGNTYYADSVKGRFTISRDNSKNTLYLQMNSLRAEDTAVYYCARDPSWCLQDLCYYADGMDVWGQGTLVTVSS VL: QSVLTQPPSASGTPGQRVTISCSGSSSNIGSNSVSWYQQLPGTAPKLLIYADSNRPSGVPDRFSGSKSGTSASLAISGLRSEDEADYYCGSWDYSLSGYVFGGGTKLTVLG ?
1.43e-07

Try this binder too: 442S1 (antibody, V domains shown, IgG1 (Selexis 085 vector, CHO)) VH: EVQLLESGGGLVQPGGSLRLSCAASGFTFSDYDMSWVRQAPGKGLEWVSTIDLDSGSIYYADSVQGRFTISRDNSKNTLYLQMNSLRAEDTAVYYCAKDLHMGPEGPFDYWGQGTLVTVSS VL: QSVLTQPPSASGTPGQRVTISCSGSSSNIGSNSVSWYQQLPGTAPKLLIYSDNHRPSGVPDRFSGSKSGTSASLAISGLRSEDEADYYCQGWDTSLSGHVFGGGTKLTVLG
3.94e-07

The measurements presented in this section are drawn from patent US20180085455A1.
